# credit: patent US10351575B2

Molecular target: NEK7 (Homo sapiens (Human), UniProt Q8TDX7)
Sequence (Q8TDX7 whole entry): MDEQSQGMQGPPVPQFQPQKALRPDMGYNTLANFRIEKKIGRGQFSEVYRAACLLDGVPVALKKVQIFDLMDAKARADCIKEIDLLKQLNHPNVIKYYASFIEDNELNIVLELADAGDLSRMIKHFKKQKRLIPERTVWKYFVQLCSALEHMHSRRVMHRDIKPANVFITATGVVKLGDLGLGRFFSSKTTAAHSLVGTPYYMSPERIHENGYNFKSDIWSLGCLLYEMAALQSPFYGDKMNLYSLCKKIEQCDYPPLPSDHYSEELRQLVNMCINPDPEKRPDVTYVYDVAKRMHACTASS
Assay: KinaseProfiler off-target kinase profiling
Format: biochemical
Conditions: 10 μM, ATP near Km
endpoint-label: Avg. POC (POC)
Numbers only; they are read as POC.

Avg. POC for COCc1ccc2c(c1)C(NC(=O)Nc1c(C)c(-c3cnn(C)c3)nn1-c1ccccc1)COC2 (stereo not shown) [Example 32] ?
122.5

Avg. POC for Cc1c(-c2ccc(=O)n(C)c2)nn(-c2ccccc2)c1NC(=O)NC1CN(CC(F)(F)F)Cc2ccccc21 (stereo not shown) [Example 26] ?
126

Avg. POC for Cc1c(-c2cnn(C)c2)nn(-c2ccccc2)c1NC(=O)NC1CCOc2cc(F)ccc21 (stereo not shown) [Example 12] ?
133.5

Avg. POC for Cc1c(-c2cnn(C)c2)nn(-c2ccccc2)c1NC(=O)N[C@H]1CCCc2ccccc21 [Example 2] ?
94.5

---

Provide the recorded Avg. POC for the entries that follow.
Molecular target: JAK2 (Homo sapiens (Human), UniProt O60674)
Sequence (O60674 whole entry): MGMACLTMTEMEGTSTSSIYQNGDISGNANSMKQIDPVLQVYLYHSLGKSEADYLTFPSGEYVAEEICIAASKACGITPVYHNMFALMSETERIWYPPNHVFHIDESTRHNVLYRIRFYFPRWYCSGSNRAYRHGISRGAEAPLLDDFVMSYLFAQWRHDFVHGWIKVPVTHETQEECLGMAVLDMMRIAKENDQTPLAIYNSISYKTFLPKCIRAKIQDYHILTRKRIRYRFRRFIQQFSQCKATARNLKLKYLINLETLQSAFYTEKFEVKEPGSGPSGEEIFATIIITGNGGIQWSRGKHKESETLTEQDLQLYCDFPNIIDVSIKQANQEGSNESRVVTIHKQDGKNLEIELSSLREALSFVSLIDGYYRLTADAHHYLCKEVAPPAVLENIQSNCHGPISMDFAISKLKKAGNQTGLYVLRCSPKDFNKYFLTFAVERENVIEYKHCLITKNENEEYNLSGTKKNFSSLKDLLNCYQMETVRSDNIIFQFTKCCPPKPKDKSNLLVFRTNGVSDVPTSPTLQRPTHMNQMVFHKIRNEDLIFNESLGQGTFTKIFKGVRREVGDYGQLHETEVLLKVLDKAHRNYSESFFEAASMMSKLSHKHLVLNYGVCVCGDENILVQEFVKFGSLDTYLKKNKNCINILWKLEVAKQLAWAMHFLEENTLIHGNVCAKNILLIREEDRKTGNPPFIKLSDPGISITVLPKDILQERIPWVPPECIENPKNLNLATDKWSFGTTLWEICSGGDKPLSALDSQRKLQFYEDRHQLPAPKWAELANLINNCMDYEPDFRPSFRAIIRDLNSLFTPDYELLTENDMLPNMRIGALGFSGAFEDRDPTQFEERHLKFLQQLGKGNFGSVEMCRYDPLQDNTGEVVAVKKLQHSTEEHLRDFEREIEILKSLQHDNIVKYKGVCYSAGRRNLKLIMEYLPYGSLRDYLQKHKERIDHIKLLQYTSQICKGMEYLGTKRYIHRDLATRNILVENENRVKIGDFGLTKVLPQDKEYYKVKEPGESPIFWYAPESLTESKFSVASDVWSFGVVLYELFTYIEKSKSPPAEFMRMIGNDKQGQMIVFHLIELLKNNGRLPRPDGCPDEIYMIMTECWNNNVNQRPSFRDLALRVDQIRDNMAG
Assay: KinaseProfiler off-target kinase profiling
Type: biochemical
Details: 10 μM, ATP near Km
Numbers only; they are read as POC.

Checklist item: Avg. POC tested on JAK2 (Homo sapiens (Human), UniProt O60674), entry Cc1c(-c2cnn(C)c2)nn(-c2ccccc2)c1NC(=O)NC1CCOc2cc(F)ccc21 (stereo not shown) , value?
122.5

Checklist item: Avg. POC tested on JAK2 (Homo sapiens (Human), UniProt O60674), entry Cc1c(-c2cnn(C)c2)nn(-c2ccccc2)c1NC(=O)N[C@H]1CCCc2ccccc21 , value?
233

Checklist item: Avg. POC tested on JAK2 (Homo sapiens (Human), UniProt O60674), entry Cc1c(-c2ccc(=O)n(C)c2)nn(-c2ccccc2)c1NC(=O)NC1CN(CC(F)(F)F)Cc2ccccc21 (stereo not shown) , value?
134.5

Checklist item: Avg. POC tested on JAK2 (Homo sapiens (Human), UniProt O60674), entry COCc1ccc2c(c1)C(NC(=O)Nc1c(C)c(-c3cnn(C)c3)nn1-c1ccccc1)COC2 (stereo not shown) , value?
122.5

---

Target: JAK3 (Homo sapiens (Human))
Test: KinaseProfiler off-target kinase profiling
Type: biochemical
Settings: 10 μM, ATP near Km
endpoint-label: Avg. POC

Avg. POC for Cc1c(-c2cnn(C)c2)nn(-c2ccccc2)c1NC(=O)NC1CCOc2cc(F)ccc21 (stereo not shown) ?
112 POC

Avg. POC for Cc1c(-c2cnn(C)c2)nn(-c2ccccc2)c1NC(=O)N[C@H]1CCCc2ccccc21 ?
142.5 POC

Avg. POC for COCc1ccc2c(c1)C(NC(=O)Nc1c(C)c(-c3cnn(C)c3)nn1-c1ccccc1)COC2 (stereo not shown) ?
109.5 POC

Avg. POC for Cc1c(-c2ccc(=O)n(C)c2)nn(-c2ccccc2)c1NC(=O)NC1CN(CC(F)(F)F)Cc2ccccc21 (stereo not shown) ?
112 POC

---

Provide the recorded Avg. POC for the entries that follow.
Molecular target: MRCKalpha (Homo sapiens (Human), UniProt Q5VT25)
Assay: KinaseProfiler off-target kinase profiling
Type: biochemical
Details: 10 μM, ATP near Km
Numbers only; they are read as POC.

Avg. POC for Cc1c(-c2cnn(C)c2)nn(-c2ccccc2)c1NC(=O)N[C@H]1CCCc2ccccc21 ?
127.5

Avg. POC for Cc1c(-c2ccc(=O)n(C)c2)nn(-c2ccccc2)c1NC(=O)NC1CN(CC(F)(F)F)Cc2ccccc21 (stereo not shown) ?
124.5

Avg. POC for COCc1ccc2c(c1)C(NC(=O)Nc1c(C)c(-c3cnn(C)c3)nn1-c1ccccc1)COC2 (stereo not shown) ?
131

Avg. POC for Cc1c(-c2cnn(C)c2)nn(-c2ccccc2)c1NC(=O)NC1CCOc2cc(F)ccc21 (stereo not shown) ?
139

---

Molecular target: PASK (Homo sapiens (Human))
Sequence (Q96RG2 whole entry): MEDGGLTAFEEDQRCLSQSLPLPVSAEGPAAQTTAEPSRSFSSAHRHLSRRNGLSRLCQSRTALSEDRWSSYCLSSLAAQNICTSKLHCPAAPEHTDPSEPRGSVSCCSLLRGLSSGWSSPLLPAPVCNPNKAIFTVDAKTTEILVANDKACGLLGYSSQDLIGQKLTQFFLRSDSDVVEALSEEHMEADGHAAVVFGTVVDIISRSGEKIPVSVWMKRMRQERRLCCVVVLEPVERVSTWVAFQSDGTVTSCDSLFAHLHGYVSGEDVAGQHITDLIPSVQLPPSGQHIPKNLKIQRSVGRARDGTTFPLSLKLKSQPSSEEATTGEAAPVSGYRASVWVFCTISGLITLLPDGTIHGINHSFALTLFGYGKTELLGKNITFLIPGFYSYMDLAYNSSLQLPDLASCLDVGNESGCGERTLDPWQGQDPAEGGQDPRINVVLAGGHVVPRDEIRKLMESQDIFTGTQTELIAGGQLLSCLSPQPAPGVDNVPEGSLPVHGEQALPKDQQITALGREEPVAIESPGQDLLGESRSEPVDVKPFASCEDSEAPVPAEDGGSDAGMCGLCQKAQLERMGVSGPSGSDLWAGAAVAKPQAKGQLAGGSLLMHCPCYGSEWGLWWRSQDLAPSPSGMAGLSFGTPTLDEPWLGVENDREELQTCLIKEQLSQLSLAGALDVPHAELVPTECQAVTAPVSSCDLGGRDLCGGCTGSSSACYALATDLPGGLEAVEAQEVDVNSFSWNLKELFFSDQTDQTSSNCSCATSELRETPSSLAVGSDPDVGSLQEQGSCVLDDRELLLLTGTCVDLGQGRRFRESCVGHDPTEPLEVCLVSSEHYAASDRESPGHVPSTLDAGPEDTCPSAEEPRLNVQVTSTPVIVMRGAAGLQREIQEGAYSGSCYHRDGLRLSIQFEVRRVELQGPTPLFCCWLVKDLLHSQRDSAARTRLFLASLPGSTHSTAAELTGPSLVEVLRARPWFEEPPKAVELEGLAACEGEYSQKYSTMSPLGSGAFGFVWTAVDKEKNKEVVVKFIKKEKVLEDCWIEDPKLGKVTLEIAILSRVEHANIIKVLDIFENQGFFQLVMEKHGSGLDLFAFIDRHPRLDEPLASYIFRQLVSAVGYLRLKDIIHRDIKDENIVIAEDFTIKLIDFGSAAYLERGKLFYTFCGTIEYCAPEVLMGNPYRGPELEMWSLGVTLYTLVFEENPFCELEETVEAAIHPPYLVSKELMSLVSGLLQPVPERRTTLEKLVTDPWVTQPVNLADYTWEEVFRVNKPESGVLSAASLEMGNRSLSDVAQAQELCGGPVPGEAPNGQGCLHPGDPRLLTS
Assay: KinaseProfiler off-target kinase profiling
Type: biochemical
Details: 10 μM, ATP near Km
Provide the recorded Avg. POC for the entries that follow.
Numbers only; they are read as POC.

Avg. POC for Cc1c(-c2ccc(=O)n(C)c2)nn(-c2ccccc2)c1NC(=O)NC1CN(CC(F)(F)F)Cc2ccccc21 (stereo not shown) [Example 26] ?
124.5

Avg. POC for Cc1c(-c2cnn(C)c2)nn(-c2ccccc2)c1NC(=O)N[C@H]1CCCc2ccccc21 [Example 2] ?
143

Avg. POC for COCc1ccc2c(c1)C(NC(=O)Nc1c(C)c(-c3cnn(C)c3)nn1-c1ccccc1)COC2 (stereo not shown) [Example 32] ?
137

Avg. POC for Cc1c(-c2cnn(C)c2)nn(-c2ccccc2)c1NC(=O)NC1CCOc2cc(F)ccc21 (stereo not shown) [Example 12] ?
125.5

---

Biological target: MRCKbeta (Homo sapiens (Human), UniProt Q9Y5S2)
Sequence (Q9Y5S2 whole entry): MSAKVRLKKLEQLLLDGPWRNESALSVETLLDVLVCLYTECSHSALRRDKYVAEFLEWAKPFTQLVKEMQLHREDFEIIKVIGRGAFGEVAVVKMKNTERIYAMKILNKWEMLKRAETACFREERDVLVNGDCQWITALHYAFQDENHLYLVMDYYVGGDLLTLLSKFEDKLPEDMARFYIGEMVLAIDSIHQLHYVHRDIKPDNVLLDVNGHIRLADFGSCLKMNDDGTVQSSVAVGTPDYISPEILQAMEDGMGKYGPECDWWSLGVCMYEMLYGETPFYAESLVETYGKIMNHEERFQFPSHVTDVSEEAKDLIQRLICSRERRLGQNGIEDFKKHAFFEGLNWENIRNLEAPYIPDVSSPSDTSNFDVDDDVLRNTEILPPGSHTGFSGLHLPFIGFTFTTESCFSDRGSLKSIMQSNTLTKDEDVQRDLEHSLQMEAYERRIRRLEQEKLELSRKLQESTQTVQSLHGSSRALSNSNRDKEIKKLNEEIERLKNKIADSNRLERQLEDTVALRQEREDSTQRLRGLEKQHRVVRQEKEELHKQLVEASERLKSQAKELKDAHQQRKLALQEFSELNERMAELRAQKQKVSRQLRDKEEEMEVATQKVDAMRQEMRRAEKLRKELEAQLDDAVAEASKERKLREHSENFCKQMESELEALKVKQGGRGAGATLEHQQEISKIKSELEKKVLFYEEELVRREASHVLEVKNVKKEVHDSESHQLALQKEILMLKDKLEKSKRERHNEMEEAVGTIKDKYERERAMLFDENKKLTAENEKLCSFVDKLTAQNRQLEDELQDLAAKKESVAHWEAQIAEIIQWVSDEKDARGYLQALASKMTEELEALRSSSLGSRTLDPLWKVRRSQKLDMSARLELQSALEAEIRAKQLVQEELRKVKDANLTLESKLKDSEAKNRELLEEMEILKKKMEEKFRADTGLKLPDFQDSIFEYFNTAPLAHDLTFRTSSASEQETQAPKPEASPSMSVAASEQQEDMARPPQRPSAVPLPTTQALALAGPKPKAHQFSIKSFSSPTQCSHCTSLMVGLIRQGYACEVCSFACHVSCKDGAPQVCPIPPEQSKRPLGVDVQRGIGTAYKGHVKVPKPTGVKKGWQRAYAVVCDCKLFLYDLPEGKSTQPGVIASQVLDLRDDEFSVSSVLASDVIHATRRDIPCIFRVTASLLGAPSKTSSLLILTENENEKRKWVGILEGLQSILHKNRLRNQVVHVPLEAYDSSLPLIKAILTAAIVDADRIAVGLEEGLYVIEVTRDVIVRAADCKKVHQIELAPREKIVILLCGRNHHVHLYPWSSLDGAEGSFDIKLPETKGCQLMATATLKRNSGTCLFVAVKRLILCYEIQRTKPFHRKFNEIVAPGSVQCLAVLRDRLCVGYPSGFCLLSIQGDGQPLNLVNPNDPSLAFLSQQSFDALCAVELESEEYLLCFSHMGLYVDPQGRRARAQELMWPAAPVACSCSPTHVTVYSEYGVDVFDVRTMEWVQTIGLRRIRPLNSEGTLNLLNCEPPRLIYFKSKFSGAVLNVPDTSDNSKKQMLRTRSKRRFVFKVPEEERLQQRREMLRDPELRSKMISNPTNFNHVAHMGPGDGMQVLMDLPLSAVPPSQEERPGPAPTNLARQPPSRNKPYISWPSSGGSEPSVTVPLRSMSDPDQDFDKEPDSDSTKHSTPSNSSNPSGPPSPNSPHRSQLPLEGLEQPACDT
Experiment: KinaseProfiler off-target kinase profiling
Type: biochemical
Details: 10 μM, ATP near Km
endpoint-label: Avg. POC (POC)
Numbers only; they are read as POC.

Checklist item: Avg. POC tested on MRCKbeta (Homo sapiens (Human), UniProt Q9Y5S2), entry Cc1c(-c2cnn(C)c2)nn(-c2ccccc2)c1NC(=O)N[C@H]1CCCc2ccccc21 , value?
129.5

Checklist item: Avg. POC tested on MRCKbeta (Homo sapiens (Human), UniProt Q9Y5S2), entry Cc1c(-c2ccc(=O)n(C)c2)nn(-c2ccccc2)c1NC(=O)NC1CN(CC(F)(F)F)Cc2ccccc21 (stereo not shown) , value?
110

Checklist item: Avg. POC tested on MRCKbeta (Homo sapiens (Human), UniProt Q9Y5S2), entry Cc1c(-c2cnn(C)c2)nn(-c2ccccc2)c1NC(=O)NC1CCOc2cc(F)ccc21 (stereo not shown) , value?
103.5

Checklist item: Avg. POC tested on MRCKbeta (Homo sapiens (Human), UniProt Q9Y5S2), entry COCc1ccc2c(c1)C(NC(=O)Nc1c(C)c(-c3cnn(C)c3)nn1-c1ccccc1)COC2 (stereo not shown) , value?
103

---

Molecular target: PKCiota (Homo sapiens (Human))
Assay: KinaseProfiler off-target kinase profiling
Type: biochemical
Conditions: 10 μM, ATP near Km
endpoint-label: Avg. POC (POC)
Numbers only; they are read as POC.

Avg. POC for Cc1c(-c2cnn(C)c2)nn(-c2ccccc2)c1NC(=O)NC1CCOc2cc(F)ccc21 (stereo not shown) ?
69.5

Avg. POC for COCc1ccc2c(c1)C(NC(=O)Nc1c(C)c(-c3cnn(C)c3)nn1-c1ccccc1)COC2 (stereo not shown) ?
71

Avg. POC for Cc1c(-c2ccc(=O)n(C)c2)nn(-c2ccccc2)c1NC(=O)NC1CN(CC(F)(F)F)Cc2ccccc21 (stereo not shown) ?
85.5

Avg. POC for Cc1c(-c2cnn(C)c2)nn(-c2ccccc2)c1NC(=O)N[C@H]1CCCc2ccccc21 ?
95.5

---

Target: Flt4 (Homo sapiens (Human))
Assay: KinaseProfiler off-target kinase profiling
Format: biochemical
Settings: 10 μM, ATP near Km
endpoint-label: Avg. POC (POC)
Numbers only; they are read as POC.

Checklist item: Avg. POC tested on Flt4 (Homo sapiens (Human)), entry Cc1c(-c2cnn(C)c2)nn(-c2ccccc2)c1NC(=O)N[C@H]1CCCc2ccccc21 [Example 2] , value?
99

Checklist item: Avg. POC tested on Flt4 (Homo sapiens (Human)), entry Cc1c(-c2cnn(C)c2)nn(-c2ccccc2)c1NC(=O)NC1CCOc2cc(F)ccc21 (stereo not shown) [Example 12] , value?
83.5

Checklist item: Avg. POC tested on Flt4 (Homo sapiens (Human)), entry COCc1ccc2c(c1)C(NC(=O)Nc1c(C)c(-c3cnn(C)c3)nn1-c1ccccc1)COC2 (stereo not shown) [Example 32] , value?
98

Checklist item: Avg. POC tested on Flt4 (Homo sapiens (Human)), entry Cc1c(-c2ccc(=O)n(C)c2)nn(-c2ccccc2)c1NC(=O)NC1CN(CC(F)(F)F)Cc2ccccc21 (stereo not shown) [Example 26] , value?
106

---

Provide the recorded Avg. POC for the entries that follow.
Biological target: UniProtKB Q9H4B4
Sequence (Q9H4B4 whole entry): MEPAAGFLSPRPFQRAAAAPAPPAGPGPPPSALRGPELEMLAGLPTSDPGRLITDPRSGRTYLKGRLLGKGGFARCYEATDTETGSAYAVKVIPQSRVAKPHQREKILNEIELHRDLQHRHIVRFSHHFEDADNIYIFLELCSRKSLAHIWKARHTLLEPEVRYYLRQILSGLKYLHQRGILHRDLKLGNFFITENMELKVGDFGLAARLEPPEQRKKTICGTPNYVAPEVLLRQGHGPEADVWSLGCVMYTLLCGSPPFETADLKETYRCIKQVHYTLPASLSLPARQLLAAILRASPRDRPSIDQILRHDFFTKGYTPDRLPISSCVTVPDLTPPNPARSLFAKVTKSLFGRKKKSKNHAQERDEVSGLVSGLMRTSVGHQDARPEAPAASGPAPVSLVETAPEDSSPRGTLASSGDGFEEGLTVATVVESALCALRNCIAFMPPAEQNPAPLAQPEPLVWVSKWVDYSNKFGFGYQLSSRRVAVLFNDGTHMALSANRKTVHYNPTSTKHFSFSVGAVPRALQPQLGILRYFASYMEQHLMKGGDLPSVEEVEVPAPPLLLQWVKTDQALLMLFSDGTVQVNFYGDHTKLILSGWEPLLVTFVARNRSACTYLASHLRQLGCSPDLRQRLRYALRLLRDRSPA
Assay: KinaseProfiler off-target kinase profiling
Assay type: biochemical
Settings: 10 μM, ATP near Km
Method: Representative compounds (Examples 12, 32, 26 and 2) of the invention were tested for off-target kinase activity at a concentration of 10 μM by Millipore, Inc. in their KinaseProfiler™ service against all the kinases available in their full kinase panel. Compounds were run in duplicate at a concentration of ATP near the Km for each individual kinase according to Millipore's specifications. […]
Numbers only; they are read as POC.

Avg. POC for Cc1c(-c2ccc(=O)n(C)c2)nn(-c2ccccc2)c1NC(=O)NC1CN(CC(F)(F)F)Cc2ccccc21 (stereo not shown) [Example 26] ?
119

Avg. POC for Cc1c(-c2cnn(C)c2)nn(-c2ccccc2)c1NC(=O)N[C@H]1CCCc2ccccc21 [Example 2] ?
103

Avg. POC for Cc1c(-c2cnn(C)c2)nn(-c2ccccc2)c1NC(=O)NC1CCOc2cc(F)ccc21 (stereo not shown) [Example 12] ?
115

Avg. POC for COCc1ccc2c(c1)C(NC(=O)Nc1c(C)c(-c3cnn(C)c3)nn1-c1ccccc1)COC2 (stereo not shown) [Example 32] ?
103.5
